Form field: CC50 (one value per entry).
- System: 60 different human tumor cell lines
- method notes: cells
- run conditions: KM12, read-out: LC50

C[C@]12CCc3sc(NCCc4ccccc4)nc3C1=CC[C@@H]1[C@@H]2CC[C@]2(C)C(=O)CC[C@@H]12 [IIa.2]    > 100 µM
C[C@]12CC[C@H]3[C@@H](CC=C4c5sc(-c6ccc(O)cc6)nc5CC[C@@]43C)[C@@H]1CC[C@@H]2O [III.5]    > 100 µM

Alright, here's another compound for you.
Which CC50 value belongs to C[C@]12CCc3sc(Nc4ccc(OC(F)(F)F)cc4)nc3C1=CC[C@@H]1[C@@H]2CC[C@]2(C)C(=O)CC[C@@H]12 [IIa.19] ? > 100 µM
